Entries and their IC50 (read off the curve) values follow.
Target system: T1, human PD-L1 expressed on cells (human, UniProt Q9NZQ7 19-290)
T1 construct: whole, on cells; also called PD-L1 transfected HEK 293 cells; HEK293-6E cells transfected with human PD-L1
T1 sequence (Q9NZQ7 19-290): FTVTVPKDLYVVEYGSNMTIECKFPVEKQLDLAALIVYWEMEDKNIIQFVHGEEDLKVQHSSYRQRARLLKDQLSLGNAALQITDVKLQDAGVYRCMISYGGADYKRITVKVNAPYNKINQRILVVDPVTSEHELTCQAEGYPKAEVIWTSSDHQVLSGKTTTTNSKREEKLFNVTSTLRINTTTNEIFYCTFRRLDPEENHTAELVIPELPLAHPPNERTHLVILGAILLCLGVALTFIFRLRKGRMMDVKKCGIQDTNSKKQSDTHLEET
Test description: flow cytometry blocking assay; antibody mixed with human PD-1-PE (the blocked partner) and added to HEK293 cells transfected with human PD-L1
Description: Cells were washed 3 times with PBS and all data were collected on a BD FACSCanto II (BD Bioscience) and analysed on BD FACSDiva software (BD Bioscience).

[
  {
    "Binder": "anti-PD-L1 antibody H12, IgG4 format (antibody, V domains shown, IgG4) VH: EVQLVQSGAEVKKPGASVKVSCKASGGTFSSYAISWVRQAPGQGLEWMGRIIPILGIANYAQKFQGRVTITADKSTSTAYMELSSLRSEDTAVYYCARSGHGYSYGAFDYWGQGTL VL: QSVLTQPPSVSGAPGQRVTISCTGSSSNIGAGYDVHWYQQLPGTAPKLLIYGNSNRPSGVPDRFSGSKSGTSASLAITGLQAEDEADYYCQSYDSSLSGSYVVFGGGTKLTVL",
    "IC50 (read off the curve)": "~9 nM"
  },
  {
    "Binder": "anti-PD-L1 antibody H12_GL, IgG1 format (antibody, V domains shown, IgG1) VH: QVQLVQSGAEVKKPGSSVKVSCKASGGTFSSYAISWVRQAPGQGLEWMGRIIPILGIANYAQKFQGRVTITADKSTSTAYMELSSLRSEDTAVYYCARSGHGYSYGAFDYWGQGTLVTVSS VL: QSVLTQPPSVSGAPGQRVTISCTGSSSNIGAGYDVHWYQQLPGTAPKLLIYGNSNRPSGVPDRFSGSKSGTSASLAITGLQAEDEADYYCQSYDSSLSGSYVVFGGGTKLTVL",
    "IC50 (read off the curve)": "~7 nM"
  },
  {
    "Binder": "anti-PD-L1 antibody H12, IgG1 format (antibody, V domains shown, IgG1) VH: EVQLVQSGAEVKKPGASVKVSCKASGGTFSSYAISWVRQAPGQGLEWMGRIIPILGIANYAQKFQGRVTITADKSTSTAYMELSSLRSEDTAVYYCARSGHGYSYGAFDYWGQGTL VL: QSVLTQPPSVSGAPGQRVTISCTGSSSNIGAGYDVHWYQQLPGTAPKLLIYGNSNRPSGVPDRFSGSKSGTSASLAITGLQAEDEADYYCQSYDSSLSGSYVVFGGGTKLTVL",
    "IC50 (read off the curve)": "~9 nM"
  },
  {
    "Binder": "anti-PD-L1 antibody H12_GL, IgG4 format (antibody, V domains shown, IgG4) VH: QVQLVQSGAEVKKPGSSVKVSCKASGGTFSSYAISWVRQAPGQGLEWMGRIIPILGIANYAQKFQGRVTITADKSTSTAYMELSSLRSEDTAVYYCARSGHGYSYGAFDYWGQGTLVTVSS VL: QSVLTQPPSVSGAPGQRVTISCTGSSSNIGAGYDVHWYQQLPGTAPKLLIYGNSNRPSGVPDRFSGSKSGTSASLAITGLQAEDEADYYCQSYDSSLSGSYVVFGGGTKLTVL",
    "IC50 (read off the curve)": "~7 nM"
  }
]
